meta.source: the supplement of paper PMC6757056

Reported FACS-Seq fitted mean (log10) values follow for various variants
B1: library; a variant is named by its letters at N, in order (parent)
chain: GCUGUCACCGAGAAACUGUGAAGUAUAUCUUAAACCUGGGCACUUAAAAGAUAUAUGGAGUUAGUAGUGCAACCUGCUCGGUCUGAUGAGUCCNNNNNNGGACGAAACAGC

# Variants of: B1
# Assay Summary: FACS-Seq fitted mean relative fluorescence mCherry/BFP without ligand (log10 relative fluorescence); HEK293T; ligand: cyclic di-GMP (c-di-GMP-II aptamer); higher = higher reporter protein expression
# Measurement Context: ligand present: no
Simply state the number, no unit and no words.

Example variants with recorded FACS-Seq fitted mean (log10):
1. GCUGUCACCGAGAAACUGUGAAGUAUAUCUUAAACCUGGGCACUUAAAAGAUAUAUGGAGUUAGUAGUGCAACCUGCUCGGUCUGAUGAGUCCCACGCAGGACGAAACAGC [CACGCA] = -0.406
2. GCUGUCACCGAGAAACUGUGAAGUAUAUCUUAAACCUGGGCACUUAAAAGAUAUAUGGAGUUAGUAGUGCAACCUGCUCGGUCUGAUGAGUCCCAUUAAGGACGAAACAGC [CAUUAA] = -0.604
3. GCUGUCACCGAGAAACUGUGAAGUAUAUCUUAAACCUGGGCACUUAAAAGAUAUAUGGAGUUAGUAGUGCAACCUGCUCGGUCUGAUGAGUCCUUUCUAGGACGAAACAGC [UUUCUA] = -0.278
4. GCUGUCACCGAGAAACUGUGAAGUAUAUCUUAAACCUGGGCACUUAAAAGAUAUAUGGAGUUAGUAGUGCAACCUGCUCGGUCUGAUGAGUCCCGCUACGGACGAAACAGC [CGCUAC] = -0.231

Query: Given GCUGUCACCGAGAAACUGUGAAGUAUAUCUUAAACCUGGGCACUUAAAAGAUAUAUGGAGUUAGUAGUGCAACCUGCUCGGUCUGAUGAGUCCAAGAAUGGACGAAACAGC [AAGAAU] , respond with its FACS-Seq fitted mean (log10).
Reply: -0.565

Query: Given GCUGUCACCGAGAAACUGUGAAGUAUAUCUUAAACCUGGGCACUUAAAAGAUAUAUGGAGUUAGUAGUGCAACCUGCUCGGUCUGAUGAGUCCGUCGCGGGACGAAACAGC [GUCGCG] , respond with its FACS-Seq fitted mean (log10).
Reply: -0.376

Query: Given GCUGUCACCGAGAAACUGUGAAGUAUAUCUUAAACCUGGGCACUUAAAAGAUAUAUGGAGUUAGUAGUGCAACCUGCUCGGUCUGAUGAGUCCAAUGAGGGACGAAACAGC [AAUGAG] , respond with its FACS-Seq fitted mean (log10).
Reply: -0.328

Query: Given GCUGUCACCGAGAAACUGUGAAGUAUAUCUUAAACCUGGGCACUUAAAAGAUAUAUGGAGUUAGUAGUGCAACCUGCUCGGUCUGAUGAGUCCCCCUCCGGACGAAACAGC [CCCUCC] , respond with its FACS-Seq fitted mean (log10).
Reply: -0.844
